Where do the numbers come from? From paper PMC9303331.

Target: T1, rGLP‐2 receptor (rat, UniProt Q9Z0W0 1-550)
T1 construct: rat glucagon-like peptide-2 receptor, pcDNA3.1(+) plasmid from ThermoFisher; also called rat GLP‐2 receptor; source: COS-7, transiently transfected (pcDNA3.1(+)), on whole cells
T1 sequence (looked up): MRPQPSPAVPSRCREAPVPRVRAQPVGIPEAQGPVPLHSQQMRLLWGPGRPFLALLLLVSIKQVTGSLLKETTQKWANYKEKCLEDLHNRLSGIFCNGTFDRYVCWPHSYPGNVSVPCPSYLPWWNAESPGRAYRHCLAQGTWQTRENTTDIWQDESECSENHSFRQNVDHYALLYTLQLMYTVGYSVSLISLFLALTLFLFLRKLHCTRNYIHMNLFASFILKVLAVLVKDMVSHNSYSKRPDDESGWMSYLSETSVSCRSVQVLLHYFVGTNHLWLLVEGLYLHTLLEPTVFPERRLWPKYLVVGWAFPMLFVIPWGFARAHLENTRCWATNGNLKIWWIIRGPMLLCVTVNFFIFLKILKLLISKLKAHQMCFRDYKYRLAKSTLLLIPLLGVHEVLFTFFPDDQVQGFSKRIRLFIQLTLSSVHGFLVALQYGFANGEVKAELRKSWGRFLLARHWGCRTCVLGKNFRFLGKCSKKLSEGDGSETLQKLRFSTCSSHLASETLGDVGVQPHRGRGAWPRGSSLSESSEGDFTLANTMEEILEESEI
Details: one partner purified
RECORDED_ENDPOINT: Ki (nM)
One number for each entry, in nM.

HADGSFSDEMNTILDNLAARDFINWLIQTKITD [hGLP‐2(1–33)] has a reported Ki of 5.4
